Experiment: BSK_BE3C_SRB: Viability Assessment in the BioMAP Diversity Plus: BE3C Assay (AID 2283028)
Conditions: primary human bronchial epithelial cells
Protocol: BSK_BE3C is a cell-based, multiplexed-readout assay that uses bronchial epithelial cell, a human lung primary cell, with measurements taken at 24 hours after chemical dosing in a 96-well plate.BSK_BE3C_SRB is an assay component measured in the BSK_BE3C assay. It measures 0.1% sulforhodamine related to cell death using Sulforhodamine staining technology.Data from the assay component BSK_BE3C_SRB was analyzed into 1 assay endpoint. […]
Activity calls are given as the source filed them. The calls were made as follows: active = hit-call score of the fitted dose curve at least 0.9, where 1 is the maximum; inactive = score below 0.9.
Write down the outcome that applies. Available outcomes: TRUE (active), FALSE (inactive)

The examples below pair each entry with its known result.
{"columns": ["COMPOUND", "ASSIGNED LABEL"],
 "data": [
  ["CCCCC(CC)COC(=O)c1ccccc1C(=O)OCC(CC)CCCC (centres undefined)", "TRUE"],
  ["CCOC(=O)C(Cl)Cc1cc(-n2nc(C)n(C(F)F)c2=O)c(F)cc1Cl (centres undefined)", "FALSE"],
  ["N#Cc1cc(Br)c(O)c(Br)c1", "FALSE"]
]}

[Q] Lab log entry: `COC(=O)N(OC)c1ccccc1COc1ccn(-c2ccc(Cl)cc2)n1` — outcome as called in the assay?
[A] TRUE
